assay: Pharmacokinetic study in pentagastrin‐pretreated dogs with or without HP‐β‐CD; assay type: in vivo, dog; settings: male, beagle, dog, plasma, po, 100 mg, Tmax, 100 mg tablets, HP‐β‐CD 0.8 g

[
  {
    "smiles.input": "C[C@H]1CN(C2COC2)CCN1c1ccc(Nc2cc(-c3ccnc(N4CCn5c(cc6c5CC(C)(C)C6)C4=O)c3CO)cn(C)c2=O)nc1",
    "Tmax (h)": 1.38
  }
]
